# growth inhibition per record follows
assay: S. cerevisiae growth inhibition in permissive medium (OD615), pilot counter-assay for S. cerevisiae lifespan shortening project, permissive growth control (AID 705); conditions: OD615, 24 h, at 10 µM, stronger effect = higher value
# number only, unit % dropped from output

Here are 4 compounds together with their reported answers.
[
  {
    "compound": "COC(=O)C(C)Sc1nnc(Cc2cc(=O)[nH]c(=O)[nH]2)n1-c1cc(C)ccc1C (stereo not given)",
    "growth inhibition, %": -5.62
  },
  {
    "compound": "N#CCCN(Cc1cccnc1)C(=O)Nc1ccc(Cl)c(Cl)c1",
    "growth inhibition, %": -13.1
  },
  {
    "compound": "CCOC(=O)N1CCC(NC(=O)Cn2c3c(c(-c4ccccc4Cl)cc2=O)CCC3)CC1",
    "growth inhibition, %": -9.94
  },
  {
    "compound": "CC(=O)Nc1ccc(S(=O)(=O)N2CCN(C(=O)CCC3CCCC3)CC2)cc1",
    "growth inhibition, %": 0.295
  }
]

Would you mind telling me what growth inhibition value was observed for CCOC(=O)N1CCN(C(=O)C2CCN(C(=O)c3cc4sccc4n3CC)CC2)CC1 ?
-16.3
